Each recorded value in this set is attributed to patent US8883763B2.

melting point: recorded values

// solved cases for melting point follow
INSERT INTO results (molecule_smiles, readout_value) VALUES
  ('COc1ccc(-c2c([N+](=O)[O-])c3ccc(OC)cc3c(=O)n2CC#N)cc1', '194 to 196 °C'),
  ('COc1ccc(-c2nc(Cl)c3cc(OC)ccc3c2[N+](=O)[O-])cc1', '196 to 198 °C'),
  ('COc1ccc(-c2[nH]c(=S)c3cc(OC)ccc3c2[N+](=O)[O-])cc1', '226 to 228 °C');

Would you kindly share the measured melting point for `COc1ccc(-c2[nH]c(=O)c3cc(OC)ccc3c2-n2cccc2)cc1` ?
238 °C

Fill in the blank: the reported melting point of `COc1ccc2cc(-c3ccc(O)cc3)[nH]c(=O)c2c1` is ____.
255 °C

Please give the measured melting point for this molecule: `C#CCn1c(-c2ccc(OC)cc2)c([N+](=O)[O-])c2ccc(OC)cc2c1=O`
162 to 164 °C
